# maps each entry to its IC50
Biological target: Pseudomonas aeruginosa LpxC enzyme (Pseudomonas aeruginosa (strain ATCC 15692 / DSM 22644 / CIP 104116 / JCM 14847 / LMG 12228 / 1C / PRS 101 / PAO1))
Assay: biochemical
Format: biochemical
Conditions: inhibitory activity on Pseudomonas aeruginosa LpxC enzyme, class symbols A/B/C; read-out: Enzyme inhibitory activity

# example entries with known answers
# compound, IC50
rows = [
    ("CNC(=O)C(C(=O)NO)N(C)C(=O)c1ccc(-c2ccc3c(c2)CCN3)cc1 (stereo not shown) [Compound 39]", "0.01 to 0.1 µM"),
    ("CNC(=O)C(C(=O)NO)N(C)C(=O)c1ccc(C#Cc2ccc(C(F)(F)F)cc2)cc1 (stereo not shown) [Compound 420]", "0.01 to 0.1 µM"),
    ("CNC(=O)C(NC(=O)c1ccc(-c2ccc(OCCOCCO)cc2)cc1)C(=O)NO (stereo not shown) [Compound 14]", "< 0.01 µM"),
    ("CNC(=O)C(C(=O)NO)N(C)C(=O)c1ccc(C#Cc2ccc(CNCc3ccccc3)cc2)cc1 (stereo not shown) [Compound 330]", "< 0.01 µM"),
]

Provide only the value of recorded IC50 for CNC(=O)C(C)(C(=O)NO)N(C)C(=O)c1ccc(C#Cc2ccccc2)cc1 (stereo not shown) [Compound 345]
< 0.01 µM

Output measured IC50 for this item: CNC(=O)C(C(=O)NO)N(C)C(=O)c1ccc(-c2ccc(SC)nc2)cc1 (stereo not shown) [Compound 469]
0.01 to 0.1 µM

Recall and state the measured IC50 for O=C1COc2ccc(CNC(=O)C(NC(=O)c3ccc(-c4ccc(OCCO)cc4)cc3)C(=O)NO)nc2N1 (stereo not shown) [Compound 152] .
< 0.01 µM

State its IC50 for this compound: CNC(=O)C(C(=O)NO)N(C)C(=O)c1ccc(C#Cc2cccc(CN3CCOCC3)c2)cc1 (stereo not shown) [Compound 375]
0.01 to 0.1 µM

Check the records and state IC50 for CNC(=O)C(C(=O)NO)N(C)C(=O)c1ccc(-c2ccc(OCCCCO)cc2)cc1 (stereo not shown) [Compound 180]
< 0.01 µM

Tell me its IC50 given O=C(NC(C(=O)NO)C(=O)NCc1ccccn1)c1ccc(-c2ccc(OCCO)cc2)cc1 (stereo not shown) [Compound 130] as the entry.
< 0.01 µM

----------
Target: Pseudomonas aeruginosa LpxC enzyme (Pseudomonas aeruginosa (strain ATCC 15692 / DSM 22644 / CIP 104116 / JCM 14847 / LMG 12228 / 1C / PRS 101 / PAO1), UniProt P47205)
Assay: biochemical
Format: biochemical
Settings: inhibitory activity on Pseudomonas aeruginosa LpxC enzyme, class symbols A/B/C; read-out: Enzyme inhibitory activity
pIC50: −log10 of the molar value.
property-name: pIC50

# compound, property-name, result
data = [
    ("CNC(=O)C(C(=O)NO)N(C)C(=O)c1ccc(C#Cc2ccnc(C)c2)cc1 (stereo not drawn)", "pIC50", "7.00 to 8.00"),
    ("CNC(=O)C(C(=O)NO)N(C)C(=O)c1ccc(/C=C/C#Cc2ccc(CNC3CC3)cc2)cc1 (stereo not drawn)", "pIC50", "> 8.00"),
    ("CNC(=O)C(C(=O)NO)N(C)C(=O)c1ccc(-c2ccc(CCC(=O)N(C)C)cc2)cc1 (stereo not drawn)", "pIC50", "7.00 to 8.00"),
    ("CNC(=O)C(C(=O)NO)N(C)C(=O)c1ccc(C#Cc2ccc(CN(C)C3CCCCC3)cc2)cc1 (stereo not drawn)", "pIC50", "7.00 to 8.00"),
    ("CNC(=O)C(C(=O)NO)N(C)C(=O)c1ccc(-c2ccc(C#CCN3CCOCC3)cc2)cc1 (stereo not drawn)", "pIC50", "> 8.00"),
]

// fetch pIC50 given entry CNC(=O)C(C(=O)NO)N(C)C(=O)c1ccc(-c2ccc(C(=O)NC(C)(C)C)cc2)cc1 (stereo not drawn)
7.00 to 8.00

Consider the compound CNC(=O)[C@@](C)(C(=O)NO)N(C)C(=O)c1ccc(C#Cc2ccc(CNC3COC3)cc2)cc1 and give its recorded pIC50.
> 8.00

Identify measured pIC50 associated with O=C(NC(C(=O)NO)C(=O)NCC(=O)N1CCCC1)c1ccc(-c2ccc(OCCO)cc2)cc1 (stereo not drawn)
> 8.00

Give the reported pIC50 for this compound. CN(C(=O)c1ccc(-c2ccccc2)cc1)C(C(=O)NO)C(=O)NCc1ccccn1 (stereo not drawn)
7.00 to 8.00
